Tested on: IL-23 Kit225 Reporter (Kit225 T cells with STAT-dependent luciferase reporter)
method.notes: Kit225 T cell assay, IL-23 stimulated STAT-dependent luciferase reporter
Format: cell-based
recorded.conditions: 20 ng/mL human recombinant IL-23, 5-6 hours
Lab note: compare IC50 with 1000 nM, writing TRUE if less and FALSE if equal or more.

| molecule.smiles | class |
| --- | --- |
| CNc1cc(-n2cc(C(=O)N3CCOCC3)c3ccccc32)nn2c(C(=O)NC3CCC3)cnc12 | FALSE |
| CNc1cc(-n2cc(C(=O)NCC(C)(C)O)c3ccccc32)nn2c(C(=O)NC3CCC3)cnc12 | FALSE |
| CNc1cc(-n2ccc3c(OC)cccc32)nn2c(C(=O)NC3CC3)cnc12 | TRUE |
| CNc1cc(-n2cc(C(=O)NCC(C)C)c3ccccc32)nn2c(C(=O)NC3CC3)cnc12 | FALSE |
| CNc1cc(-n2cc(C(=O)NCC(C)(C)O)c3cccnc32)nn2c(C(=O)NC3CC3)cnc12 | TRUE |
| CNc1cc(-n2nc(C(=O)N(C)C)c3ccccc32)nn2c(C(=O)NC3CC3)cnc12 | TRUE |

Cited source: patent US11299494B2
